Source: the kinase profiling compilation of Christmann-Franck et al. (2016)

# Study target: BTK (human) (UniProt Q06187)
# Sequence (Q06187 whole entry, looked up): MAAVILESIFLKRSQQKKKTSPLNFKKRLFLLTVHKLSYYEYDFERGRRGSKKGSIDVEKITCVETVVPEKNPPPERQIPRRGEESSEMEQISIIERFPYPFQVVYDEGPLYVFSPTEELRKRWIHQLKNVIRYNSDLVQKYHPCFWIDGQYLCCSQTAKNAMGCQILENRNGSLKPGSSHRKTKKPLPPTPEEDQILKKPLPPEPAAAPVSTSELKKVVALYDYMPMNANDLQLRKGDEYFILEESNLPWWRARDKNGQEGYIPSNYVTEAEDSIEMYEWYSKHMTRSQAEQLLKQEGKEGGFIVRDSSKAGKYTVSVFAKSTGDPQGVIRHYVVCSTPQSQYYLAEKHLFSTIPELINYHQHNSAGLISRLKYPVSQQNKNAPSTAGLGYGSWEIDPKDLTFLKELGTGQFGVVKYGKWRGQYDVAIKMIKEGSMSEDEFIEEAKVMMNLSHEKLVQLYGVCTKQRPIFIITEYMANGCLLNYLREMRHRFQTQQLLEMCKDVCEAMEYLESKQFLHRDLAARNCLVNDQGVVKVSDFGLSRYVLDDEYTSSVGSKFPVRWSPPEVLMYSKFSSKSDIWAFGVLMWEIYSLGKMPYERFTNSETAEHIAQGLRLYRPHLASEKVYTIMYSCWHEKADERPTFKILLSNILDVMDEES
# Experiment notes: radiometric filter-binding kinase assay
# Assay conditions: compound 1.0 µM
Reported metric: residual activity (%)

Examples with their reported residual activity follow.
>  <Structure>
Cc1cccc(-c2nn(C(=S)Nc3ccccc3)cc2-c2ccnc3ccccc23)n1

>  <residual activity / %>
104

$$$$
>  <Structure>
CCc1cncnc1N1CCN(Cc2nc3cc(C(F)(F)F)ccc3[nH]2)CC1

>  <residual activity / %>
87

$$$$
>  <Structure>
N#Cc1c(C2CCNCC2)cc(-c2c(O)cccc2OCC2CC2)nc1N

>  <residual activity / %>
122

$$$$

[a] COc1ccc(N(C(=O)Nc2c(C)cccc2C)c2cc(Nc3ccc(N4CCN(C)CC4)cc3)ncn2)c(OC)c1
[b] Cc1ccc(-c2ccc3c(ccc4sc5c(c43)NC[C@@H](C)NC5=O)n2)cn1
q: Sorting ascending by residual activity, which comes first: a or b ? // caller expects the label of the chosen entry
a: a
(a: 21%, b: 118%)
